# TARGET UNDER TEST: Dα1/Dβ1 nAChR (Drosophila melanogaster, UniProt P04755+P09478)
# ASSAY PROTOCOL: cell-based
# Set-up: species or system Xenopus laevis oocytes
QUANTITY MEASURED: EC50 (µM)

>>> print(df.to_string())
              structure_smiles_string  quantity_measured  value_measured
0  O=[N+]([O-])NC1=NCCN1Cc1ccc(Cl)nc1               EC50           0.174

----------
# TARGET UNDER TEST: Dα1/Dα2/Dβ1/Dβ2 nAChR (Drosophila melanogaster, UniProt P04755+P09478+P17644+P25162)
# ASSAY PROTOCOL: two-electrode voltage clamp of Xenopus oocytes, agonist concentration-response
# Format: cell-based
QUANTITY MEASURED: EC50 (nM)

>>> df
                                   compound                         target_under_test  value_measured
0  N#C/N=C1\SCCN1Cc1ccc(Cl)nc1 [thiacloprid]  Dα1/Dα2/Dβ1/Dβ2 nAChR (Drosophila melanogaster, UniProt P04755+P09478+P17644+P25162)            70.8
1  O=[N+]([O-])NC1=NCCN1Cc1ccc(Cl)nc1 [imidacloprid]  Dα1/Dα2/Dβ1/Dβ2 nAChR (Drosophila melanogaster, UniProt P04755+P09478+P17644+P25162)             120

----------
# TARGET UNDER TEST: Btα1/Btα8/Btβ1 nAChR (Bombus terrestris, UniProt A0A9B0BGM1+A0A9B0F4H3+A0A9B2JDZ7)
# Sequence (A0A9B0F4H3 44-615): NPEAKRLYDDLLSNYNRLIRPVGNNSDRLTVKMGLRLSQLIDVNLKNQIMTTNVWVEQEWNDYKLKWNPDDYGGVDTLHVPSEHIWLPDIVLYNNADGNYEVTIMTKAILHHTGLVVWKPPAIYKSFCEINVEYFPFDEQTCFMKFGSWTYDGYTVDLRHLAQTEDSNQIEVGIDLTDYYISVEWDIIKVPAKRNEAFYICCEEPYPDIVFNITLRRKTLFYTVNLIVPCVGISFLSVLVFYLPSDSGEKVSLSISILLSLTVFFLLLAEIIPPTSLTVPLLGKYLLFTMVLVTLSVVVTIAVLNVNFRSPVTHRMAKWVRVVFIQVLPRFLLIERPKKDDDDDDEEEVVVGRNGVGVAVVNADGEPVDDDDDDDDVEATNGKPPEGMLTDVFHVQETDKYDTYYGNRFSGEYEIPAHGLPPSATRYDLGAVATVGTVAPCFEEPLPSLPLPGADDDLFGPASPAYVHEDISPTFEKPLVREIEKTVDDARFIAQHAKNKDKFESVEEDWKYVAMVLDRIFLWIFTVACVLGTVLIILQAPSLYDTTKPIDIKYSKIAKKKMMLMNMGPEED
# Sequence (A0A9B2JDZ7 22-535): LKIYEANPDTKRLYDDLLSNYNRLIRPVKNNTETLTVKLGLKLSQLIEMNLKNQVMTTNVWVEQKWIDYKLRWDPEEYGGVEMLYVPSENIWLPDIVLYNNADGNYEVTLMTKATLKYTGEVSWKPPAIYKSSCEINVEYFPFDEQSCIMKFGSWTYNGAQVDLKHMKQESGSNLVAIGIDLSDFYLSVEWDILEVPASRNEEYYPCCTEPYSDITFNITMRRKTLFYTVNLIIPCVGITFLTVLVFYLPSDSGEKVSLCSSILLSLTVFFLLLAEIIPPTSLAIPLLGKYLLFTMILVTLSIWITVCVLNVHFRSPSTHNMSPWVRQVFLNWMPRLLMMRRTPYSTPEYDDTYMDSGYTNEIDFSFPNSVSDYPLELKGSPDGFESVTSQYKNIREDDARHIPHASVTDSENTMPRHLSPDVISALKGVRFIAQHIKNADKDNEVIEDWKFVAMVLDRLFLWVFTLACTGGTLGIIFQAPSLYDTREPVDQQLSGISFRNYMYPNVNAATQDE
# Sequence (A0A9B0BGM1 19-519): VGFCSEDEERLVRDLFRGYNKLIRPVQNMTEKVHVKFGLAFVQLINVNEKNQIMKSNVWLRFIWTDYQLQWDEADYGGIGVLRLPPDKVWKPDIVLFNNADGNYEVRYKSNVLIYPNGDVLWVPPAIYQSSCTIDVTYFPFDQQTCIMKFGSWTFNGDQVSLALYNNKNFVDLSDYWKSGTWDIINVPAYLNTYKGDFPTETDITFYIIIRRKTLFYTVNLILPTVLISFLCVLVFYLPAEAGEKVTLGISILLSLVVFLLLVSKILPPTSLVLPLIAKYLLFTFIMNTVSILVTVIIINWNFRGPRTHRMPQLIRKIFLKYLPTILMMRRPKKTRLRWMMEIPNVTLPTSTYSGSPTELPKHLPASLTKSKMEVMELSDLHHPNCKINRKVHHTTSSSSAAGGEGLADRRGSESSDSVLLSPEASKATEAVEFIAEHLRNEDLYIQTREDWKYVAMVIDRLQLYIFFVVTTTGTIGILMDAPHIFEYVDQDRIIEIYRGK
# ASSAY PROTOCOL: cell-based
# Parameters: species or system Xenopus laevis oocytes
QUANTITY MEASURED: EC50

>>> print(df.to_string())
   structure_smiles_string                         target_under_test  value_measured
0     CC(=O)OCC[N+](C)(C)C  Btα1/Btα8/Btβ1 nAChR (Bombus terrestris, UniProt A0A9B0BGM1+A0A9B0F4H3+A0A9B2JDZ7)         1580 nM

----------
# TARGET UNDER TEST: Dα1/Dβ1/Dβ2 nAChR (Drosophila melanogaster, UniProt P04755+P09478+P25162)
# Sequence (P09478 22-567): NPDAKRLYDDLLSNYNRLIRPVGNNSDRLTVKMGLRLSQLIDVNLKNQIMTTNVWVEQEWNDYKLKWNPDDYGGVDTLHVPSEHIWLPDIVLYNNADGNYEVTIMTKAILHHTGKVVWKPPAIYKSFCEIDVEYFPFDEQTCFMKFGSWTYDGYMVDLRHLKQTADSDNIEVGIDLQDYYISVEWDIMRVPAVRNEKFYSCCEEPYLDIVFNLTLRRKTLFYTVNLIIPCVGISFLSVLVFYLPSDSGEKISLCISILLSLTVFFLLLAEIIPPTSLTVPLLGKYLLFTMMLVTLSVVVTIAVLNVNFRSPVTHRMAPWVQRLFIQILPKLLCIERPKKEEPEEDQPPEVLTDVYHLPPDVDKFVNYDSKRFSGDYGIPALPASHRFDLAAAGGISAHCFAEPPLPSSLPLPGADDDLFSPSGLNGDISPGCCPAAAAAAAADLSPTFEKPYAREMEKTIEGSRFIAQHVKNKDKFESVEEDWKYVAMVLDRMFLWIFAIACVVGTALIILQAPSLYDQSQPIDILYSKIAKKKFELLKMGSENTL
# Sequence (P04755 25-521): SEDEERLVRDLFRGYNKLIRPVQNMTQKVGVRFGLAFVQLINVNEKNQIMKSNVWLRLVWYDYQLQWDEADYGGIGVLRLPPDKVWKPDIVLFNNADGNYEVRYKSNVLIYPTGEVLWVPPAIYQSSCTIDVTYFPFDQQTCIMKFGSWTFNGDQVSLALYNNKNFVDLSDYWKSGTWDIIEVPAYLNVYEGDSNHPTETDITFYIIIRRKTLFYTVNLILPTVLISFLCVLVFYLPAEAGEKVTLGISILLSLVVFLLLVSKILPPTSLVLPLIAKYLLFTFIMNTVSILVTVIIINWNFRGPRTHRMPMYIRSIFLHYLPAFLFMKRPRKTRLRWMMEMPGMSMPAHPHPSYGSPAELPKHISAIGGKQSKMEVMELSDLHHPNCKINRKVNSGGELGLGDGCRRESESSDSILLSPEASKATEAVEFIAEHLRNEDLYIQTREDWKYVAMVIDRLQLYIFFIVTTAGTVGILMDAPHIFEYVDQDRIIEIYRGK
# Sequence (P25162 19-519): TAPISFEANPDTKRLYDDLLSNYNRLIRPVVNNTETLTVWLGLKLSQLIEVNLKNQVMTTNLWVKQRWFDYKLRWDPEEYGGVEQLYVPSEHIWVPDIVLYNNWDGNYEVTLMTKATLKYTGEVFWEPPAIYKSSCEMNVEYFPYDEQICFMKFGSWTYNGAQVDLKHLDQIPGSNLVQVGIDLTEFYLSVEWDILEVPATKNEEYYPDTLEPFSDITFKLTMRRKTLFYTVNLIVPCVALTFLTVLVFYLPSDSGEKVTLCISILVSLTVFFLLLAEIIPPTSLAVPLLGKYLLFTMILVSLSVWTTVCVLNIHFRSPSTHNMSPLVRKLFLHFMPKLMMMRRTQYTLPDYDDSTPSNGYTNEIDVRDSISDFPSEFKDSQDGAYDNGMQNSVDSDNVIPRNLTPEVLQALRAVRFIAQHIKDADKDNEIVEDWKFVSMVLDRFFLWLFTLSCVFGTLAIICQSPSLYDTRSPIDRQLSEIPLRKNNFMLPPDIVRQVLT
# ASSAY PROTOCOL: two-electrode voltage clamp of Xenopus oocytes, agonist concentration-response
# Format: cell-based
Each entry below carries its recorded EC50.
QUANTITY MEASURED: EC50 (µM)

              structure_smiles_string  quantity_measured  scale_unit  value_measured
0  O=[N+]([O-])NC1=NCCN1Cc1ccc(Cl)nc1               EC50          µM           0.107
1         N#C/N=C1\SCCN1Cc1ccc(Cl)nc1               EC50          µM          0.0186
